Recorded 24hr Dox Inducible IL6R(ss + 10)Gluc 293FRT/TO: IL6R/PD1 by entry
- System: IL6R-ss+10aa/Gaussia Luciferase
- Assay Info: Dox-induced IL-6R-ss-Gluc Assay
- Type: cell-based
- Condition Details: ratio of IC50s IL6R/PD1; Table 1
Attribute Measured: 24hr Dox Inducible IL6R(ss + 10)Gluc 293FRT/TO: IL6R/PD1

test_smiles=N#Cc1ocnc1/C=C/c1csc(NC(=O)c2cccn2Cc2ccnc(F)c2)n1 tested_target="IL6R-ss+10aa/Gaussia Luciferase" rel=> measurement=79
test_smiles=COc1cc(C(=O)Nc2nc(/C=C/c3ncn(C(C)C)c3Cl)c(CO)s2)n(Cc2ccnc(F)c2F)c1 tested_target="IL6R-ss+10aa/Gaussia Luciferase" rel=> measurement=105
test_smiles=[2H]C([2H])(c1ccnc(F)c1)n1cc(OC)cc1C(=O)Nc1nc(/C=C/c2ncn(C3CC3)c2Cl)cs1 tested_target="IL6R-ss+10aa/Gaussia Luciferase" rel== measurement=318
test_smiles=O=C(Nc1nc(/C=C/c2ncn(C3CC3)c2Cl)cs1)c1cc(C(F)F)cn1Cc1ccnc(F)c1 tested_target="IL6R-ss+10aa/Gaussia Luciferase" rel=> measurement=517
test_smiles=CC(=O)N[C@H]1CC[C@H](/C=C/c2csc(NC(=O)c3cccn3Cc3ccncc3)n2)CC1 tested_target="IL6R-ss+10aa/Gaussia Luciferase" rel== measurement=5
test_smiles=N[C@H]1CC[C@@H](/C=C/c2csc(NC(=O)c3cccn3Cc3ccncc3)n2)CC1 tested_target="IL6R-ss+10aa/Gaussia Luciferase" rel== measurement=1
test_smiles=CC(C)n1cnc(/C=C/c2csc(NC(=O)c3cc(OC(F)F)cn3Cc3ccnc(F)c3)n2)c1Cl tested_target="IL6R-ss+10aa/Gaussia Luciferase" rel== measurement=176
test_smiles=Cc1cnc(F)c(C)c1Cn1cc(OC(F)F)cc1C(=O)Nc1nc(/C=C/c2ncn(C3CC3)c2Cl)cs1 tested_target="IL6R-ss+10aa/Gaussia Luciferase" rel== measurement=28
test_smiles=CC(C)n1cnc(/C=C/c2csc(NC(=O)c3cc(Cl)cn3Cc3ccnc(F)c3)n2)c1C(F)(F)F tested_target="IL6R-ss+10aa/Gaussia Luciferase" rel== measurement=96
test_smiles=COc1cc(C(=O)Nc2nc(/C=C/c3ncn(C4CC4)c3Cl)cs2)n(Cc2ccnc(F)c2)c1 tested_target="IL6R-ss+10aa/Gaussia Luciferase" rel== measurement=489
test_smiles=CC(=O)N[C@H]1CC[C@@H](/C=C/c2csc(NC(=O)c3cccn3Cc3ccncc3)n2)CC1 tested_target="IL6R-ss+10aa/Gaussia Luciferase" rel=> measurement=2
test_smiles=N#Cc1c(/C=C/c2csc(NC(=O)c3cc(Cl)cn3Cc3ccnc(F)c3)n2)ncn1C1CC1 tested_target="IL6R-ss+10aa/Gaussia Luciferase" rel== measurement=68
test_smiles=O=C(Nc1nc(/C=C/c2ncn(C3CC3)c2Cl)cs1)c1cc(SC(F)(F)F)cn1Cc1ccnc(F)c1 tested_target="IL6R-ss+10aa/Gaussia Luciferase" rel== measurement=317
test_smiles=O=C(Nc1nc(/C=C/c2ncn(C3CC3)c2Cl)cs1)c1cc(C(F)(F)F)cn1Cc1ccnc(F)c1 tested_target="IL6R-ss+10aa/Gaussia Luciferase" rel== measurement=292
test_smiles=[2H]C([2H])([2H])Oc1cc(C(=O)Nc2nc(/C=C/c3ncn(C4CC4)c3Cl)cs2)n(Cc2ccnc(F)c2F)c1 tested_target="IL6R-ss+10aa/Gaussia Luciferase" rel=> measurement=741
test_smiles=Cc1nc(/C=C/c2csc(NC(=O)c3cccn3Cc3ccnc(F)c3)n2)ccc1C#N tested_target="IL6R-ss+10aa/Gaussia Luciferase" rel=> measurement=23
test_smiles=CN[C@H]1CC[C@@H](/C=C/c2csc(NC(=O)c3cccn3Cc3ccncc3)n2)CC1 tested_target="IL6R-ss+10aa/Gaussia Luciferase" rel=> measurement=1.3
test_smiles=O=C(Nc1nc(/C=C/c2cn(C(F)F)cn2)cs1)c1cc(Cl)cn1Cc1ccnc(F)c1 tested_target="IL6R-ss+10aa/Gaussia Luciferase" rel=> measurement=57
test_smiles=[2H]C([2H])(c1ccnc(F)c1)n1cc(OC(F)F)cc1C(=O)Nc1nc(/C=C/c2ncn(C3CC3)c2Cl)cs1 tested_target="IL6R-ss+10aa/Gaussia Luciferase" rel== measurement=339
test_smiles=N[C@H]1CC[C@H](/C=C/c2csc(NC(=O)c3cccn3Cc3ccncc3)n2)CC1 tested_target="IL6R-ss+10aa/Gaussia Luciferase" rel== measurement=1
test_smiles=[2H]C([2H])(c1ccnc(F)c1)n1cc(Cl)cc1C(=O)Nc1nc(/C=C/c2ncn(C3CC3)c2Cl)cs1 tested_target="IL6R-ss+10aa/Gaussia Luciferase" rel== measurement=112
